- Tested on: UGT enzymes of human liver microsomes
- PROCEDURE TEXT: Inhibition of raloxifene glucuronidation (G1, G2) in human liver microsomes
- Format: biochemical
- CONDITIONS: G2; inhibitor 500 μM; raloxifene 50 μM, human liver microsomes 250 μg/ml, 15 min
MEASURED ENDPOINT: % of control metabolism (SD, n = 3), raloxifene glucuronide G2

COMPOUND | TARGET ENTITY | OBSERVED VALUE
CC/C(=C(/CC)c1ccc(O)cc1)c1ccc(O)cc1 [Diethylstilbestrol, reference compound] | UGT enzymes of human liver microsomes | 0 (0) %

Fill in % of control metabolism (SD, n = 3), raloxifene glucuronide G2 for each of the 8 compounds listed.
1. O=C(O[C@@H]1Cc2c(O)cc(O)cc2O[C@H]1c1cc(O)c(O)c(O)c1)c1cc(O)c(O)c(O)c1 [Gallocatechin gallate]
2. C[C@]12CC[C@@H]3c4ccc(O)cc4CC[C@H]3[C@@H]1CC[C@@H]2O [E2, 17-β-estradiol, reference compound]
3. O=C(O)c1cc(-c2ccc(F)cc2F)ccc1O [Diflunisal, reference compound]
4. COc1ccc2cc(CCC(C)=O)ccc2c1
5. CN(C)CCC=C1c2ccccc2CCc2ccccc21 [Amitriptyline, reference compound]
6. Oc1cc(O)c2c(c1)O[C@H](c1cc(O)c(O)c(O)c1)[C@H](O)C2 [Epigallocatechin]
7. O=C(O)c1ccccc1O
8. CCCN(CCC)S(=O)(=O)c1ccc(C(=O)O)cc1 [Probenecid, reference compound]

Given back:
["0 (0) %", "56 (2) %", "7 (1) %", "80 (2) %", "132 (5) %", "79 (4) %", "94 (2) %", "70 (1) %"]

Fill in % of control metabolism (SD, n = 3), raloxifene glucuronide G2 for each of the 2 compounds listed.
1. COc1c(C)c2c(c(O)c1C/C=C(\C)CCC(=O)O)C(=O)OC2 [Mycophenolic acid, reference compound]
2. O=C(O)Cc1ccccc1Nc1c(Cl)cccc1Cl [Diclofenac, reference compound]

Given back:
1: 47 (1) %; 2: 6 (1) %

Fill in % of control metabolism (SD, n = 3), raloxifene glucuronide G2 for each of the 2 compounds listed.
1. O=C(O[C@@H]1Cc2c(O)cc(O)cc2O[C@@H]1c1ccc(O)c(O)c1)c1cc(O)c(O)c(O)c1 [Epicatechin gallate]
2. CC(=O)OC1CC(C)CCC1C(C)C (single isomer, unassigned; (-)) [(−)-Menthyl acetate]

Given back:
0 (0) %
69 (0) %

Fill in % of control metabolism (SD, n = 3), raloxifene glucuronide G2 for each of the 4 compounds listed.
1. CCCOC(=O)c1cc(O)c(O)c(O)c1 [Propyl gallate]
2. CC(CCc1ccccc1)NCC(O)c1ccc(O)c(C(N)=O)c1 (centres unmarked)
3. CC1=C(CC(=O)O)c2cc(F)ccc2/C1=C\c1ccc([S+](C)[O-])cc1 (centres unmarked)
4. CCCCCCCCCCCCOC(=O)c1cc(O)c(O)c(O)c1 [Lauryl gallate]

Given back:
33 (2) %
102 (4) %
44 (2) %
37 (1) %

----------
- Test system: UGT enzymes of pooled human jejunum microsomes
- PROCEDURE TEXT: Inhibition of 2ME2 glucuronidation (MG1) in pooled human jejunum microsomes
- Format: biochemical
- CONDITIONS: jejunum HJ61; 2ME2 50 μM; inhibitor 50 μM
MEASURED ENDPOINT: residual metabolism (% of control), 2ME2 MG1

COMPOUND | OBSERVED VALUE
O=c1c(O)c(-c2ccc(O)c(O)c2)oc2cc(O)cc(O)c12 | 44 (2) %
O=C(O[C@@H]1Cc2c(O)cc(O)cc2O[C@@H]1c1ccc(O)c(O)c1)c1cc(O)c(O)c(O)c1 [Epicatechin gallate] | 63 (1) %
CC1CCC(C(C)C)C(O)C1 (stereo not drawn) | 98 (4) %
O=C(OC[C@H]1O[C@@H](OC(=O)c2cc(O)c(O)c(OC(=O)c3cc(O)c(O)c(O)c3)c2)[C@H](OC(=O)c2cc(O)c(O)c(OC(=O)c3cc(O)c(O)c(O)c3)c2)[C@@H](OC(=O)c2cc(O)c(O)c(OC(=O)c3cc(O)c(O)c(O)c3)c2)[C@@H]1OC(=O)c1cc(O)c(O)c(OC(=O)c2cc(O)c(O)c(O)c2)c1)c1cc(O)c(O)c(OC(=O)c2cc(O)c(O)c(O)c2)c1 | <LOQ
O=C(O[C@@H]1Cc2c(O)cc(O)cc2O[C@@H]1c1cc(O)c(O)c(O)c1)c1cc(O)c(O)c(O)c1 [Epigallocatechin gallate] | 50 (3) %

Fill in residual metabolism (% of control), 2ME2 MG1 for each of the 7 compounds listed.
1. CCCCCCCCOC(=O)c1cc(O)c(O)c(O)c1 [Octyl gallate]
2. O=C(c1ccc(OCCN2CCCCC2)cc1)c1c(-c2ccc(O)cc2)sc2cc(O)ccc12 [Raloxifene, raloxifene, reference compound]
3. C#C[C@]1(O)CC[C@H]2[C@@H]3CCc4cc(O)ccc4[C@H]3CC[C@@]21C [17-α-Ethinylestradiol, 17-α-ethinylestradiol, reference compound]
4. O=C1C[C@@H](c2ccc(O)cc2)Oc2cc(O)cc(O)c21
5. O=C(O)c1cc(-c2ccc(F)cc2F)ccc1O [Diflunisal, reference compound]
6. O=C(O[C@@H]1Cc2c(O)cc(O)cc2O[C@H]1c1cc(O)c(O)c(O)c1)c1cc(O)c(O)c(O)c1 [Gallocatechin gallate]
7. O=C(O)Cc1ccccc1Nc1c(Cl)cccc1Cl [Diclofenac, reference compound]

Given back:
["121 (7) %", "17 (0) %", "109 (5) %", "78 (2) %", "91 (1) %", "31 (1) %", "100 (3) %"]
